Ref: paper PMC11213201

B1: ZFYVE21-FLAG [not stated] / LC3B [human (endogenous in HUVEC)] (parent complex)
chain 1: MSSEVSARRDAKKLVRSPSGLRMVPEHRAFGSPFGLEEPQWVPDKECRRCMQCDAKFDFLTRKHHCRRCGKCFCDRCCSQKVPLRRMCFVDPVRQCAECALVSLKEAEFYDKQLKVLLSGATFLVTFGNSEKPETMTCRLSNNQRYLFLDGDSHYEIEIVHISTVQILTEGFPPGGGNARATGMFLQYTVPGTEGVTQLKLTVVEDVTVGRRQAVAWLVAMHKAAKLLYESRDQ
chain 2: not shown

- Variants of: B1
- experimentSummary: FLAG co-IP and Western blot (densitometry); transduced HUVECs; read off a plot
# response values compiled below

Example variants with recorded response:
mutant	experimentalReadout	measured
chain 1 Y146A	response	~0.036 Fold Change LC3-II
chain 1 L149A	response	~0.092 Fold Change LC3-II
chain 1 F57A	response	~0.17 Fold Change LC3-II

Report response, nothing else, for this variant: chain 1 L60A
~0.078 Fold Change LC3-II
